# EXPERIMENTAL TARGET: T1, human IL-2 (human, UniProt P60568 21-153, biotin-labeled in the IL2RB blocking assay)
# T1 construct: also called biotin-labeled IL-2 (Acro Biosystems IL2-H82E4)
# T1 sequence (P60568 21-153 limits assumed): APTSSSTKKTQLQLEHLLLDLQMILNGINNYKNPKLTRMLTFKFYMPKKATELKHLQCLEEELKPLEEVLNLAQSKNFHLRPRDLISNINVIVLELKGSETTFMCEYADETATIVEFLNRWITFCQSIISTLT
# EXPERIMENT SUMMARY: HTRF
RECORDED METRIC: IL2 Binding
Respond numerically, and do not add a unit to the figure.

BINDER	IL2 Binding
PD1-IL2-R02-A08 (scFv, V domains shown, cf) VH: QVQLVQSGAEVKKPGASVKVSCKVSGYTFTSYDINWVRQAPGQGLEWMGWINPNSGDTGYAQKFQGRVTMTRDTSTSTVYMELSSLRSEDTAVYYCARDTGLGYYYGSGDFDYWGQGTLVTVSS VL: DIQMTQSPSSLSASVGDRVTITCQASQDIHNYLNWYQQKPGKAPKLLIYDVSNLETGVPSRFSGSGSGTDFTLTISSLQPEDFATYYCQQAISFPLTFGGGTKVEIK	520
PD1-IL2-R02-C03 (SEQ ID NO: 32) (scFv, V5-tagged in the assay) scFv: QVQLVQSGAEVKKPGASVKVSCKASGYTFPRYHIHWVRQAPGQGLEWMGMINPSGGTTTYAQKFQGRVTMTRDTSTSTVYMELSSLRSEDTAVYYCARDTGLGYYYGSGDFDYWGQGTLVTVSSASGGGGSGGGGSGGGGSHASDIQMTQSPSSLSASVGDRVTITCRASQSISSWLAWYQQKPGKAPKLLIYAASSLQSGVPSRFSGSGSGTDFTLTISSLQPEDFATYYCQQSHSFPLTFGGGTKVEIK	293
PD1-IL2-R07-A09 (SEQ ID NO: 34) (scFv, V5-tagged in the assay) scFv: QVQLVQSGAEVKKPGASVKVSCKASGYTFTSYYMHWVRQAPGQGLEWMGIINPSDGSTTYAQSFQGRVTMTRDTSTSTVYMELSSLRSEDTAVYYCASGWDVWGQGTLVTVSSASGGGGSGGGGSGGGGSHASDIVMTQSPDSLAVSLGERATINCKSSQSVFSSANNKNYLAWYQQKPGQPPKLLIYWASTRESGVPDRFSGSGSGTDFTLTISSLQAEDVAVYYCQQYFGTPVTFGGGTKVEIK	2040

-- ask Bench note: what IL2 Binding did PD1-IL2-R07-A04 (scFv) QVQLVQSGAEVKKPGASVKVSCKASGYTFTDYYMHWVRQAPGQGLEWMGIINPRAGYTSYALKFQGRVTMTRDTSTSTVYMELSSLRSEDTAVYYCTSGMDVWGQGTLVTVSSASGGGGSGGGGSGGGGSHASDIQMTQSPSSLSASVGDRVTITCRASQSISTWLAWYQQKPGKAPKLLIYAASSLQSGVPSRFSGSGSGTDFTLTISSLQPEDFATYYCQQSYSFPVTFGQGTKVEIK show?
-- reply 973

-- ask Param item: PD1-IL2-R02-C02 (SEQ ID NO: 31) (scFv, V5-tagged in the assay) scFv: QVQLVQSGAEVKKPGVSVKVSCKASGYTFPRSYIHWVRQAPGQGLEWMGWINPHSGDTYYAQNFQGRVTMTRDTSTSTVYMELSSLRSEDTAVYYCARDTGLGYYYGSGDFDYWGQGTLVTVSSASGGGGSGGGGSGGGGSHASDIQMTQSPSSLSASVGDRVTITCRASQSISRYLNWYQQKPGKAPKLLIYTASSLQSGVPSRFSGSGSGTDFTLTISSLQPEDFATYYCQQANRFPLTFGPGTKVDIK
-- reply 298
